The reported measurements were obtained from patent US10167266B2.

The compounds listed here are annotated with their Fold Amiloride*.
Test system: sodium channel (ENaC), canine bronchial epithelia
experiment_notes: Sodium channel blocking activity: inhibition of short circuit current (ISC) in airway epithelial monolayers in Ussing chambers
Format: cell-based
conditions: potency in canine bronchial epithelia relative to amiloride; Example 47
Structures can show the parent of a compound that is named as a salt.

[
  {
    "compound": "N=C(NCCCCc1ccc(OCCCO)cc1)NC(=O)c1nc(Cl)c(N)nc1N [drawing 61: R=OH, n=3, hydrochloride]",
    "experimental_readout": "Fold Amiloride*",
    "test_result": "105.2 ± 26.6 (7) fold"
  },
  {
    "compound": "Cl.N=C(NCCCCc1ccc(OCC(O)CO)cc1)NC(=O)c1nc(Cl)c(N)nc1N (stereo not shown) [drawing 48: R=H]",
    "experimental_readout": "Fold Amiloride*",
    "test_result": "51.95 (50) fold"
  },
  {
    "compound": "N=C(NCCCCc1ccc(CCO)cc1)NC(=O)c1nc(Cl)c(N)nc1N [drawing 60: R=OH, N=2, hydrochloride]",
    "experimental_readout": "Fold Amiloride*",
    "test_result": "79.2 ± 30.6 (4) fold"
  }
]

API: value(readout= Fold Amiloride*, system= sodium channel (ENaC), canine bronchial epithelia, query= Cl.NC(=NCCCCc1ccc(OCCO)cc1)NC(=O)c1nc(Cl)c(N)nc1N [drawing 61: R=OH, n=2] )
84.9 ± 30.3 (6) fold
